target: T1, human PD-1-His protein (human, UniProt Q15116 25-167, limits assumed); assay: SPR Biacore
T1 construct: also called huPD-1; not shown: His tag
T1 sequence (Q15116 25-167 limits assumed): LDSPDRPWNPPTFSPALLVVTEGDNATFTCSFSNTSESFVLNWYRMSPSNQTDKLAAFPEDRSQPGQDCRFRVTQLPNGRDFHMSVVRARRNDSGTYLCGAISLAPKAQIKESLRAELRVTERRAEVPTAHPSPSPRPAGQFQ
METRIC NAME: koff (s⁻¹)
Number in s⁻¹, nothing else.

Here are 5 binders together with their reported answers.
>>> experimental_value("HumAb703-18 (antibody, human IgG1, kappa, L234A L235A, V domains shown, humanized mAb703) VH: EVQLQESGPGLVKPSETLSLTCAVSGYSISTGYYWNWIRQPPGKGLEWMGYMSYDGNNNYNPSLKNRITISRDTSKNQFSLKLSSVTAADTAVYYCARDRGTTILGGTMDYWGQGTTVTVSS VL: DIQMTQSPSSLSASVGDRVTITCKASQSVSNDVAWYQQKPGKSPKLLIYYAFYRYTGVPDRFSGSGYGTDFTLTISSLQPEDFATYFCQQDYSSPWTFGGGTKVEIKR")
0.00124
>>> experimental_value("HumAb703-11 (antibody, human IgG1, kappa, L234A L235A, V domains shown, humanized mAb703) VH: EVQLQESGPGLVKPSETLSLTCAVSGYSISTGYYWNWIRQPPGKGLEWIGYMSYDGNNNYNPSLKNRVTISRDTSKNQFSLKLSSVTAADTAVYYCARDRGTTILGGTMDYWGQGTTVTVSS VL: DIQMTQSPSSLSASVGDRVTITCKASQSVSNDVAWYQQKPGKAPKLLIYYAFYRYTGVPDRFSGSGYGTDFTLTISSLQPEDFATYYCQQDYSSPWTFGGGTKVEIKR")
0.00176
>>> experimental_value("HumAb703-22 (antibody, human IgG1, kappa, L234A L235A, V domains shown, humanized mAb703; also called HurnAb703-22) VH: EVQLQESGPGLVKPSETLSLTCAVSGYSISTGYYWNWIRQPPGKGLEWIGYMSYDGNNNYNPSLKNRITISRDTSKNQFSLKLSSVTAADTAVYYCARDRGTTILGGTMDYWGQGTTVTVSS VL: SIVMTQSPSSLSASVGDRVTITCKASQSVSNDVAWYQQKPGKSPKLLIYYAFYRYTGVPDRFTGSGYGTDFTLTISSLQPEDFATYFCQQDYSSPWTFGGGTKVEIKR")
0.00159
>>> experimental_value("mAb703c (antibody, V domains shown) VH: DVQLQESGPGLVKPSQSLSLTCSVTGYSITTGYYWNWIRQFPGNKLEWMGYMSYDGNNNYNPSLKNRISITRDTSKNQFLLRLNSVTTEDTATYFCARDRGTTILGGTMDYWGQGTSVTVS VL: SIVMTQTPKFLFVSAGDRVTIACKASQSVSNDVAWYQQKPGQSPKLLIYYAFYRYTGVPDRFTGSGYGTDFTFTISTVQAEDLAVYFCQQDYSSPWTFGGGTKLEIK")
0.000966
>>> experimental_value("HumAb703-13 (antibody, human IgG1, kappa, L234A L235A, V domains shown, humanized mAb703) VH: EVQLQESGPGLVKPSETLSLTCAVSGYSISTGYYWNWIRQPPGKGLEWMGYMSYDGNNNYNPSLKNRITISRDTSKNQFSLKLSSVTAADTAVYYCARDRGTTILGGTMDYWGQGTTVTVSS VL: DIQMTQSPSSLSASVGDRVTITCKASQSVSNDVAWYQQKPGKAPKLLIYYAFYRYTGVPDRFSGSGYGTDFTLTISSLQPEDFATYYCQQDYSSPWTFGGGTKVEIKR")
0.00154

[ask] Return reported koff; argument: HumAb703-12 (antibody, human IgG1, kappa, L234A L235A, V domains shown, humanized mAb703) VH: EVQLQESGPGLVKPSETLSLTCAVSGYSISTGYYWNWIRQPPGKGLEWIGYMSYDGNNNYNPSLKNRITISRDTSKNQFSLKLSSVTAADTAVYYCARDRGTTILGGTMDYWGQGTTVTVSS VL: DIQMTQSPSSLSASVGDRVTITCKASQSVSNDVAWYQQKPGKAPKLLIYYAFYRYTGVPDRFSGSGYGTDFTLTISSLQPEDFATYYCQQDYSSPWTFGGGTKVEIKR
[reply] 0.00159
